// values below are reported GI50
System: LOX IMVI
Assay: NCI tumour cell line growth inhibition, 48 h
Active and inactive are the calls of the source. Rule as the data show it: active = GI50 up to about 1.1 µM and inactive = higher.
recorded.endpoint: GI50

{"compound": "CC(=O)C(C(=O)C(C)(C)C)C(=O)C(C)(C)C", "target.or.system": "LOX IMVI", "measurement": "> 100 µM (inactive)"}
{"compound": "Cn1cc(NC(=O)c2cc(NC(=O)Nc3cc(C(=O)Nc4cc(C(=O)NCCC(=N)N)n(C)c4)n(C)c3)cn2C)cc1C(=O)NCCC(=N)N", "target.or.system": "LOX IMVI", "measurement": "25.4 µM (inactive)"}
{"compound": "Cc1ccc(S(=O)OCC23CC4CC(CC(C4)C2)C3)cc1 (stereo not given)", "target.or.system": "LOX IMVI", "measurement": "> 100 µM (inactive)"}
{"compound": "CC1CC(=O)C(C(O)CC2CC(=O)N(c3ccccc3)C(=O)C2)C(C)C1 (stereo not given)", "target.or.system": "LOX IMVI", "measurement": "> 100 µM (inactive)"}
{"compound": "CC(NS(C)(=O)=O)c1ccccc1 (stereo not given)", "target.or.system": "LOX IMVI", "measurement": "> 100 µM (inactive)"}
{"compound": "NC(=O)NNC(=O)NC12CC3CC(CC(C3)C1)C2", "target.or.system": "LOX IMVI", "measurement": "> 100 µM (inactive)"}
{"compound": "CNC(=O)OCc1c(COC(=O)NC)c(-c2ccc(Cl)c(Cl)c2)n2c1SCC2", "target.or.system": "LOX IMVI", "measurement": "12.4 µM (inactive)"}
{"compound": "COc1ccc2c(c1)C(O)(C(F)(F)F)c1cc(C(=O)C(F)(F)F)c3ccccc3c1N2 (stereo not given)", "target.or.system": "LOX IMVI", "measurement": "4.99 µM (inactive)"}
{"compound": "N=C(N)NCCCC(NC(=O)c1cccc2c(=O)c3ccccc3[nH]c12)C(=O)O (stereo not given)", "target.or.system": "LOX IMVI", "measurement": "> 100 µM (inactive)"}
{"compound": "O=C(O)Cc1cccc2c1Oc1ccccc1S2", "target.or.system": "LOX IMVI", "measurement": "> 100 µM (inactive)"}

====

Test system: Malme-3M
Experiment: NCI tumour cell line growth inhibition, 48 h
Active and inactive are the calls of the source. Cut-off read from the data, not from the text of the source: active = GI50 up to about 1.1 µM and inactive = higher. Where a SMILES comes first, the peptide text is derived from it. [ ]: non-standard residue; d: D form. The star is where a group is joined. Phe(2-OMe) = COc1ccccc1C[CH](N)C(=O)O; Cbz = O=C(OCc1ccccc1)*; OBn = c1ccc(CO*)cc1
Property: GI50; scope: individual compounds

{"compound": "O=C1NC(=O)[C@@H](OCC2CCCCC2)[C@@H]2OCC3OC(C(O)C3O)C12 (stereo not given in full)", "GI50": "> 100 µM (inactive)"}
{"compound": "CC(C)(C)OC(=O)N[C@H]1CC(=O)c2ccccc2N(CC(=O)O)C1=O", "GI50": "19.9 µM (inactive)"}
{"compound": "COc1ccc2c(c1)CCN=C2Cc1cc(OC)c(OC)cc1CCCl", "GI50": "27.4 µM (inactive)"}
{"compound": "O=C1C2c3[nH]c4ccccc4c3C3CCC(c4ccccc4)CC3C2C(=O)N1c1ccccc1 (stereo not given)", "GI50": "36.8 µM (inactive)"}
{"compound": "CC/C(=N\\NS(=O)(=O)c1ccccc1)c1ccccc1", "GI50": "> 100 µM (inactive)"}
{"compound": "COC(=O)c1ccc(/N=N/N(C)COc2ccc([N+](=O)[O-])cc2)cc1", "GI50": "> 100 µM (inactive)"}
{"compound": "O=[Se](O)O", "GI50": "31.7 µM (inactive)"}
{"compound": "N#CC(NCCc1ccccc1)c1ccccc1 (stereo not given)", "GI50": "> 100 µM (inactive)"}
{"compound": "CC(=O)Nc1ccc(C2SCc3nc4ccccc4n32)cc1 (stereo not given)", "GI50": "34.7 µM (inactive)"}
{"compound": "CNC1C(O)CC(OC2C/C=C(\\C)C/C(C)=C/C=C/CCC(C)CNC(=O)/C=C/C=C/C2C)OC1C (stereo not given)", "GI50": "1.47 µM (inactive)"}
{"compound": "O=C(Nc1ccccc1[N+](=O)[O-])/C(=N/Nc1cccc(Cl)c1)c1c(O)c2ccccc2oc1=O", "GI50": "97.9 µM (inactive)"}
{"compound": "COc1cc2c(cc1OC)C(=O)N(c1ccc(OCCN3CCCC3)cc1)C2", "GI50": "> 100 µM (inactive)"}
{"compound": "CCCc1c(Cl)nc(Cl)nc1Cl", "GI50": "< 0.0208 µM (active)"}
{"compound": "COc1cc(C2C(C(=O)Nc3ccc(Cl)c(Cl)c3)=C(C)NC(C)=C2C(=O)Nc2ccc(Cl)c(Cl)c2)ccc1O", "GI50": "12.6 µM (inactive)"}
{"compound": "O=C1N(CN2CCOCC2)CN(CN2CCOCC2)C(=O)N1Cc1ccc(-c2ccc(CN3C(=O)N(CN4CCOCC4)CN(CN4CCOCC4)C3=O)cc2)cc1", "GI50": "13.2 µM (inactive)"}
{"compound": "N=C(N)N/N=C/c1ccc(O)c(C(=O)O)c1", "GI50": "99.1 µM (inactive)"}
{"compound": "COC(=O)C(Cc1ccccc1OC)NC(=O)C(CC(=O)OCc1ccccc1)NC(=O)OCc1ccccc1 (stereo not given) (Cbz-Asp(OBn)-[Phe(2-OMe)]-OMe; configuration not given here)", "GI50": "> 100 µM (inactive)"}
{"compound": "CC(=O)CC(OC(C)=O)C1=CCC2C(CC1C)OC(=O)C2C (stereo not given)", "GI50": "> 100 µM (inactive)"}
{"compound": "CN(C)CCn1c(=O)nc2c3c(c([N+](=O)[O-])ccc31)Nc1ccc(O)cc1-2", "GI50": "3.67 µM (inactive)"}
{"compound": "CNC(=S)N/N=C/c1cccc(C)n1", "GI50": "37.2 µM (inactive)"}

====

System: SR
Test: NCI tumour cell line growth inhibition, 48 h
Calls of active or inactive are those of the source. Rule as the data show it: active = GI50 up to about 1.1 µM and inactive = higher.
Possible outcomes: Y for active, N for inactive

{"molecule": "CSc1cnc2ccccc2c1Sc1cn(C)c2ccccc2c1=O", "assigned.label": "N"}
{"molecule": "Cc1ccc2nc3n(c2c1)C(c1c(F)cccc1F)SC3 (stereo not given)", "assigned.label": "N"}
{"molecule": "C=C(C)CCN(C(=O)OC(C)(C)C)c1cc(C(C)C)co1", "assigned.label": "N"}
{"molecule": "CCOc1ccc(NC(=O)/C(=N\\N)C(C(=O)OC)c2nc3ccc(Cl)cc3nc2O)cc1 (stereo not given)", "assigned.label": "N"}
{"molecule": "Nc1nc2c(N)cc(C(F)(F)F)cc2nc1-c1ccccc1", "assigned.label": "N"}
{"molecule": "Nc1nnc(-c2ccco2)c(-c2ccco2)n1", "assigned.label": "N"}
{"molecule": "CCOC(=O)C(=O)CC1=Nc2ccccc2SC(c2cccc(C)c2)C1 (stereo not given)", "assigned.label": "N"}
{"molecule": "CN1CCN(C(=S)N(C)C(=O)c2cccs2)CC1", "assigned.label": "N"}
{"molecule": "CNC1C(O)CC(OC2C/C=C(\\C)C/C(C)=C/C=C/CCC(C)CNC(=O)/C=C/C=C/C2C)OC1C (stereo not given)", "assigned.label": "Y"}
{"molecule": "O=P(O)(O)C1CCCC(P(=O)(O)O)N1 (stereo not given)", "assigned.label": "N"}
{"molecule": "O=C1c2ccccc2CC12Cc1ccccc1C2", "assigned.label": "N"}
{"molecule": "N#Cc1nc(-c2ccsc2)oc1N", "assigned.label": "N"}
{"molecule": "Cc1ccc(/C=N/Nc2ccc3ccccc3n2)s1", "assigned.label": "N"}
{"molecule": "COc1ccc(C(=O)CC2=Nc3nnc(CCCCCCCc4nnc5n4C(=O)C(CC(=O)c4ccc(OC)cc4)=N5)n3C2=O)cc1", "assigned.label": "N"}
{"molecule": "CC[C@]1(Cc2ccc(OC)c(OC)c2)C=[N+]([O-])O[C@H](OC2CCCCC2c2ccccc2)[C@@H]1OC(C)=O (stereo not given in full)", "assigned.label": "N"}
{"molecule": "COC1=C(C)C(=O)C2=C(C1=O)C1C3CC4=C(C(=O)C(OC)=C(C)C4=O)C(CNC(=O)C(C)O)N3C(C#N)C(C2)N1C (stereo not given)", "assigned.label": "Y"}
{"molecule": "Cn1cc(NC(=O)c2cc(NC(=O)Nc3cc(C(=O)Nc4cc(C(=O)NCCC(=N)N)n(C)c4)n(C)c3)cn2C)cc1C(=O)NCCC(=N)N", "assigned.label": "N"}
{"molecule": "C=CC[P@]1(=O)O[C@H](c2ccccc2)C(C)N1C(C)C (stereo not given in full)", "assigned.label": "N"}
{"molecule": "CC(=O)O[C@H]1C(=O)[C@]2(C)[C@@H](OC(=O)OCC(O)CO)C[C@H]3OC[C@@]3(OC(C)=O)[C@H]2[C@H](OC(=O)c2ccccc2)[C@]2(O)C[C@H](OC(=O)[C@H](O)[C@@H](NC(=O)c3ccccc3)c3ccccc3)C(C)=C1C2(C)C (stereo not given in full) [PACLITAXEL CERIBATE]", "assigned.label": "Y"}
{"molecule": "C=CCN1/C(=C(\\C#N)c2nc3ccccc3[nH]2)Sc2c1nc[nH]c2=O", "assigned.label": "N"}
{"molecule": "CCOC(=O)C1=C(C)N(C2OC(COC(=O)c3ccccc3)C(OC(=O)c3ccccc3)C2OC(=O)c2ccccc2)C(=S)NC1c1ccccc1 (stereo not given)", "assigned.label": "N"}
{"molecule": "COc1cc2c(cc1C)NC(=O)/C2=C/c1c(Cl)[nH]c2ccccc12", "assigned.label": "N"}
{"molecule": "CC(=O)OCC1OC(OCCCCCCO)C(OC(C)=O)C(OC(C)=O)C1OC(C)=O (stereo not given)", "assigned.label": "N"}
{"molecule": "COC(=O)C12CC3CC(CC(C(=O)O)(C3)C1)C2", "assigned.label": "N"}
{"molecule": "CC(C)(C)c1cc(C(O)(C(F)(F)F)C(F)(F)F)c2c(c1)C(C(F)(F)F)(C(F)(F)F)OC(C(C)(C)C)N2 (stereo not given)", "assigned.label": "N"}
{"molecule": "CC(C)C[C@H](NC(=O)CCc1cccc2ccccc12)B(O)O", "assigned.label": "Y"}
{"molecule": "Cc1ccc(S(=O)(=O)NCc2cccc([N+](=O)[O-])c2)cc1", "assigned.label": "N"}
{"molecule": "N#CC1=C(C#N)/C(=C(\\C#N)C(C#N)C#N)N=C1N", "assigned.label": "N"}
{"molecule": "O=Cc1cc2c(o1)C(=O)c1ccccc1C2=O", "assigned.label": "Y"}
{"molecule": "COc1cc(C(=O)O[C@@H]2[C@@H](OC(=O)c3cc(OC)c(OC)c(OC)c3)[C@@H](OC)O[C@@H]3CO[C@@H](c4ccccc4)O[C@@H]23)cc(OC)c1OC", "assigned.label": "N"}
{"molecule": "CCCSc1ccc2[nH]c(/N=C/c3ccccc3)cc2c1", "assigned.label": "N"}
{"molecule": "O=C(/C=C/c1cccc2ccccc12)c1ccccc1Cl", "assigned.label": "N"}
{"molecule": "Nc1cccnc1NCC1(CO)CCCC1", "assigned.label": "N"}
{"molecule": "CCN(CC)CCNC(=O)c1ccc(C)c(OCc2ccccc2)c1[N+](=O)[O-]", "assigned.label": "N"}
{"molecule": "COc1cc(C2c3cc4c(cc3OC(N3CCCC3)C2C)OCO4)cc(OC)c1OC (stereo not given)", "assigned.label": "Y"}
{"molecule": "CC(=O)Nc1ccc(C2SCc3nc4ccccc4n32)cc1 (stereo not given)", "assigned.label": "N"}
{"molecule": "CC(C)(C)CC(C)(C)NC(=S)NO", "assigned.label": "N"}
{"molecule": "CCCCCC(=O)CCCCCCCC(O)CC(=O)OCC (stereo not given)", "assigned.label": "N"}
{"molecule": "COc1cc2c(/C=C3/C(=O)N(c4ccccc4)c4ccccc43)c(Cl)[nH]c2cc1C", "assigned.label": "N"}
{"molecule": "CCOC(=O)Cc1nc2sc(S(N)(=O)=O)nn2c1Br", "assigned.label": "N"}

Cited source: ChEMBL document CHEMBL1201862
